ASSAY DETAILS: Solubility of the complex in water and alcohols
Type: physicochemical
CONDITION DETAILS: water
Record form. Attribute: Water solubility. Fill in for each entry.
Units required after the number.

Examples with their reported Water solubility follow.
COMPOUND	PROPERTY LABEL	VALUE MEASURED
Cc1cc(C)c(N2CC(C[N+](C)(C)C)N(c3c(C)cc(C)cc3C)[CH]2[Ru]([Cl])([Cl])=[CH]c2cc([N+](=O)[O-])ccc2OC(C)C)c(C)c1 (stereo not shown)	Water solubility	3000 µg/mL
Cc1cc(C)c(N2CC(C[N+](C)(C)C)N(c3c(C)cc(C)cc3C)[CH]2[Ru]([Cl])([Cl])=[CH]c2ccccc2OC2CC[N+](C)(C)CC2)c(C)c1 (stereo not shown)	Water solubility	35000 µg/mL
CC[N+]1(C)CCN(CC2CN(c3c(C)cc(C)cc3C)[CH]([Ru]([Cl])([Cl])=[CH]c3ccccc3OC(C)C)N2c2c(C)cc(C)cc2C)CC1 (stereo not shown)	Water solubility	3000 µg/mL
CC(C)Oc1ccccc1[CH]=[Ru]([Cl])([Cl])[CH]1N(c2c(C(C)C)cc(C[N+]3(C)CCOCC3)cc2C(C)C)CCN1c1c(C(C)C)cc(C[N+]2(C)CCOCC2)cc1C(C)C	Water solubility	2000 µg/mL
CC(C)c1cc(C[N+]2(C)CCOCC2)cc(C(C)C)c1N1CCN(c2c(C(C)C)cc(C[N+]3(C)CCOCC3)cc2C(C)C)[CH]1[Ru]([Cl])([Cl])=[CH]c1ccccc1OC1CC[N+](C)(C)CC1	Water solubility	65000 µg/mL
CC[N+]1(C)CCN(CC2CN(c3c(C)cc(C)cc3C)[CH]([Ru]([Cl])([Cl])=[CH]c3ccccc3OC3CC[N+](C)(C)CC3)N2c2c(C)cc(C)cc2C)CC1 (stereo not shown)	Water solubility	35000 µg/mL

# input for lookup
**Q:** Give reported Water solubility value for Cc1cc(C)c(N2CCN(c3c(C)cc(C)cc3C)[CH]2[Ru]([Cl])([Cl])=[CH]c2cc([N+](C)(C)C)ccc2OC(C)C)c(C)c1
**A:** 1000 µg/mL

Source: patent US9371345B2
